System: DC2.4 cells
ASSAY: In vitro transfection of DC2.4 cells with EGFP mRNA LNP preparation (flow cytometry)
Type: cell-based, mouse
STUDY_CONDITIONS: DC2.4 cells, EGFP mRNA LNP, 200 ng mRNA per well, flow cytometry
From the text: The description is based on peripheral blood mononuclear cells PBMC (Shanghai Oribiotech Co., Ltd.), human peripheral blood leukemia T cell Jurkat (ATCC), tumor infiltrating lymphocyte TIL (isolated from resected tumor tissue of a liver cancer patient, the preparation method refers to CN114763530A), mouse bone marrow-derived dendritic cells DC2.4 (Cell Bank of the Chinese Academy of Sciences), and Chinese hamster ovary cells CHO (ATCC) were used as verified cell lines for liposome transfection. […]
READOUT_LABEL: Cell Viability (%)
Unit % implied. Number only.

CCCCCCCCCCC(O)CN(CCN1CCN(CCN(CCN(CC(O)CCCCCCCCCC)CC(O)CCCCCCCCCC)CCN(CC(O)CCCCCCCCCC)CC(O)CCCCCCCCCC)CC1)CC(O)CCCCCCCCCC (centres unmarked)
87.1
CCCCCCCCCCC(O)CN(CCOCCN(CCOCCN(CC(O)CCCCCCCCCC)CC(O)CCCCCCCCCC)CCN1CCN(CCO)CC1)CC(O)CCCCCCCCCC (centres unmarked)
81.8
CCCCCCCCCCC(O)CN(CCN(CCN1CCN(CCO)CC1)CCN(CC(O)CCCCCCCCCC)CC(O)CCCCCCCCCC)CC(O)CCCCCCCCCC (centres unmarked)
98.5

Look up Cell Viability: CCCCCCCCCCCCCCC(O)CN(CCOCCOCCN(CCOCCOCCN(CC(O)CCCCCCCCCCCCCC)CC(O)CCCCCCCCCCCCCC)CCN1CCN(CCO)CC1)CC(O)CCCCCCCCCCCCCC (centres unmarked)
93.4

Value lookup for Cell Viability; key = CCCCCCCCCCCCC(O)CN(CCOCCN(CCOCCN(CC(O)CCCCCCCCCCCC)CC(O)CCCCCCCCCCCC)CCN1CCN(CCOCCN(CC(O)CCCCCCCCCCCC)CC(O)CCCCCCCCCCCC)CC1)CC(O)CCCCCCCCCCCC (centres unmarked)
95.0

Looking for the measured Cell Viability of CCCCCCCCCCCCCCCCC(O)CN(CCOCCOCCOCCN(CCOCCOCCOCCN(CC(O)CCCCCCCCCCCCCCCC)CC(O)CCCCCCCCCCCCCCCC)CCN1CCN(CCO)CC1)CC(O)CCCCCCCCCCCCCCCC (centres unmarked) , can you help?
98.6

----------
ASSAY: Size and polydispersity index PDI of lipid nanoparticles (Malvern Zetasizer Nano ZS)
Assay type: physicochemical
STUDY_CONDITIONS: LNP ionizable lipid/DOPE/cholesterol/DSPE-PEG2000 35/16/46.5/2.5 mol% encapsulating EGFP mRNA; in nm (unit assumed)
READOUT_LABEL: Particle Size
Give the value as a plain number.

CCCCCCCCCCCCCCC(O)CN(CCN1CCN(CCN(CCN(CC(O)CCCCCCCCCCCCCC)CC(O)CCCCCCCCCCCCCC)CCN(CC(O)CCCCCCCCCCCCCC)CC(O)CCCCCCCCCCCCCC)CC1)CC(O)CCCCCCCCCCCCCC (stereo not shown)
90.8
CCCCCCCCCCCCC(O)CN(CCOCCN(CCOCCN(CC(O)CCCCCCCCCCCC)CC(O)CCCCCCCCCCCC)CCN1CCN(CCO)CC1)CC(O)CCCCCCCCCCCC (stereo not shown)
126.1
CCCCCCCCCCCCCCC(O)CN(CCOCCOCCN(CCOCCOCCN(CC(O)CCCCCCCCCCCCCC)CC(O)CCCCCCCCCCCCCC)CCN1CCN(C)CC1)CC(O)CCCCCCCCCCCCCC (stereo not shown)
78.2

I would be grateful if you could share the reported Particle Size for CCCCCCCCCCCCCCC(O)CN(CCOCCOCCN(CCOCCOCCN(CC(O)CCCCCCCCCCCCCC)CC(O)CCCCCCCCCCCCCC)CCN1CCN(CCO)CC1)CC(O)CCCCCCCCCCCCCC (stereo not shown) .
76.0

Recorded Particle Size for CCCCCCCCCCCCC(O)CN(CCOCCOCCOCCN(CCOCCOCCOCCN(CC(O)CCCCCCCCCCCC)CC(O)CCCCCCCCCCCC)CCN1CCN(CCO)CC1)CC(O)CCCCCCCCCCCC (stereo not shown) , please?
101.5

Look up Particle Size for this compound: CCCCCCCCCCCCCCCCC(O)CC(CCOCCOCCOCCN(CCOCCOCCOCCN(CC(O)CCCCCCCCCCCCCCCC)CC(O)CCCCCCCCCCCCCCCC)CCN1CCN(CCOCCOCCOCCN(CC(O)CCCCCCCCCCCCCCCC)CC(O)CCCCCCCCCCCCCCCC)CC1)CC(O)CCCCCCCCCCCCCCCC (stereo not shown)
103.0

// query Particle Size value for entry CCCCCCCCCCCCC(O)CN(CCOCCOCCOCCN(CCOCCOCCOCCN(CC(O)CCCCCCCCCCCC)CC(O)CCCCCCCCCCCC)CCN1CCN(C)CC1)CC(O)CCCCCCCCCCCC (stereo not shown)
94.8

GET /values?readout=Particle Size&item= CCCCCCCCCCCCC(O)CN(CCN1CCN(CCN(CCN(CC(O)CCCCCCCCCCCC)CC(O)CCCCCCCCCCCC)CCN(CC(O)CCCCCCCCCCCC)CC(O)CCCCCCCCCCCC)CC1)CC(O)CCCCCCCCCCCC (stereo not shown)
97.1

Can you share its Particle Size? I mean this compound: CCCCCCCCCCCCC(O)CN(CCOCCN(CCOCCN(CC(O)CCCCCCCCCCCC)CC(O)CCCCCCCCCCCC)CCN1CCN(CCOCCN(CC(O)CCCCCCCCCCCC)CC(O)CCCCCCCCCCCC)CC1)CC(O)CCCCCCCCCCCC (stereo not shown)
90.5

Need Particle Size of CCCCCCCCCCCCCCC(O)CN(CCOCCN(CCOCCN(CC(O)CCCCCCCCCCCCCC)CC(O)CCCCCCCCCCCCCC)CCN1CCN(C)CC1)CC(O)CCCCCCCCCCCCCC (stereo not shown) , thanks.
91.9

----------
Test system: PBMC cells
ASSAY: In vitro transfection of PBMC cells with EGFP mRNA LNP preparation (flow cytometry)
Type: cell-based
Design: concentration or dose not given beside the values
STUDY_CONDITIONS: PBMCs, LNP preparation added with ApoE4
Description: The description is based on peripheral blood mononuclear cells PBMC (Shanghai Oribiotech Co., Ltd.), human peripheral blood leukemia T cell Jurkat (ATCC), tumor infiltrating lymphocyte TIL (isolated from resected tumor tissue of a liver cancer patient, the preparation method refers to CN114763530A), mouse bone marrow-derived dendritic cells DC2.4 (Cell Bank of the Chinese Academy of Sciences), and Chinese hamster ovary cells CHO (ATCC) were used as verified cell lines for liposome transfection. […]
Cell Viability reference
All answers are understood in %, so give the number only.

CCCCCCCCCCCCCCCCC(O)CN(CCN1CCN(CCN(CCN(CC(O)CCCCCCCCCCCCCCCC)CC(O)CCCCCCCCCCCCCCCC)CCN(CC(O)CCCCCCCCCCCCCCCC)CC(O)CCCCCCCCCCCCCCCC)CC1)CC(O)CCCCCCCCCCCCCCCC (centres unmarked)
85.00

# Cell Viability lookup, item CCCCCCCCCCC(O)CN(CCOCCN(CCOCCN(CC(O)CCCCCCCCCC)CC(O)CCCCCCCCCC)CCN1CCN(CCOCCN(CC(O)CCCCCCCCCC)CC(O)CCCCCCCCCC)CC1)CC(O)CCCCCCCCCC (centres unmarked)
85.00

----------
Overview of recorded Particle Size for various molecules
ASSAY: Size and polydispersity index PDI of lipid nanoparticles (Malvern Zetasizer Nano ZS)
Assay type: physicochemical
STUDY_CONDITIONS: LNP ionizable lipid/DOPE/cholesterol/DSPE-PEG2000 35/16/46.5/2.5 mol% encapsulating EGFP mRNA; in nm (unit assumed)
Lab note: write the figure by itself, no unit.

Study these solved cases before continuing.
CCCCCCCCCCCCCCCCC(O)CN(CCN(CCN1CCN(CCO)CC1)CCN(CC(O)CCCCCCCCCCCCCCCC)CC(O)CCCCCCCCCCCCCCCC)CC(O)CCCCCCCCCCCCCCCC (centres unmarked)
72.3
CCCCCCCCCCCCCCC(O)CN(CCN(CCN1CCN(C)CC1)CCN(CC(O)CCCCCCCCCCCCCC)CC(O)CCCCCCCCCCCCCC)CC(O)CCCCCCCCCCCCCC (centres unmarked)
76.9
CCCCCCCCCCC(O)CN(CCOCCOCCOCCN(CCOCCOCCOCCN(CC(O)CCCCCCCCCC)CC(O)CCCCCCCCCC)CCN1CCN(CCOCCOCCOCCN(CC(O)CCCCCCCCCC)CC(O)CCCCCCCCCC)CC1)CC(O)CCCCCCCCCC (centres unmarked)
90.5
CCCCCCCCCCCCCCCCC(O)CN(CCOCCOCCOCCN(CCOCCOCCOCCN(CC(O)CCCCCCCCCCCCCCCC)CC(O)CCCCCCCCCCCCCCCC)CCN1CCN(CCO)CC1)CC(O)CCCCCCCCCCCCCCCC (centres unmarked)
124.0

Fill in: Particle Size of CCCCCCCCCCCCC(O)CN(CCN(CCN1CCN(CCO)CC1)CCN(CC(O)CCCCCCCCCCCC)CC(O)CCCCCCCCCCCC)CC(O)CCCCCCCCCCCC (centres unmarked) is ___
120.3
